Provide the reported AUC(0-t) of each item.
# assayOverview: Pharmacokinetic (PK) studies in beagle dog
# Format: in vivo
# experimentalConditions: dog; male beagle dogs, IV, 0.5 mg/kg, plasma

Worked examples, 2 compounds total:
compound | AUC(0-t)
Cc1nc(N2CCC3(CC2)CO[C@@H](C)[C@H]3N)c(CO)nc1Sc1ccnc(N)c1Cl [Control Compound 2] | 614 ng·h/mL
C[C@@H]1OCC2(CCN(c3ncc(Sc4ccnc(N5CC(O)C5)c4Cl)nc3CO)CC2)[C@@H]1N [Control Compound 1] | 1220 ng·h/mL

Read the next record carefully.
Lookup: Name the recorded AUC(0-t) for C[C@@H]1OCC2(CCN(c3cnc(Sc4ccnc(N)c4Cl)c(N)n3)CC2)[C@@H]1N [TNO-155, reference compound] .
Found: 2350 ng·h/mL

----------
# studySystem: hERG (Homo sapiens, UniProt Q12809)
# Construct: purchased ThermoFisher
# Sequence (Q12809 whole entry): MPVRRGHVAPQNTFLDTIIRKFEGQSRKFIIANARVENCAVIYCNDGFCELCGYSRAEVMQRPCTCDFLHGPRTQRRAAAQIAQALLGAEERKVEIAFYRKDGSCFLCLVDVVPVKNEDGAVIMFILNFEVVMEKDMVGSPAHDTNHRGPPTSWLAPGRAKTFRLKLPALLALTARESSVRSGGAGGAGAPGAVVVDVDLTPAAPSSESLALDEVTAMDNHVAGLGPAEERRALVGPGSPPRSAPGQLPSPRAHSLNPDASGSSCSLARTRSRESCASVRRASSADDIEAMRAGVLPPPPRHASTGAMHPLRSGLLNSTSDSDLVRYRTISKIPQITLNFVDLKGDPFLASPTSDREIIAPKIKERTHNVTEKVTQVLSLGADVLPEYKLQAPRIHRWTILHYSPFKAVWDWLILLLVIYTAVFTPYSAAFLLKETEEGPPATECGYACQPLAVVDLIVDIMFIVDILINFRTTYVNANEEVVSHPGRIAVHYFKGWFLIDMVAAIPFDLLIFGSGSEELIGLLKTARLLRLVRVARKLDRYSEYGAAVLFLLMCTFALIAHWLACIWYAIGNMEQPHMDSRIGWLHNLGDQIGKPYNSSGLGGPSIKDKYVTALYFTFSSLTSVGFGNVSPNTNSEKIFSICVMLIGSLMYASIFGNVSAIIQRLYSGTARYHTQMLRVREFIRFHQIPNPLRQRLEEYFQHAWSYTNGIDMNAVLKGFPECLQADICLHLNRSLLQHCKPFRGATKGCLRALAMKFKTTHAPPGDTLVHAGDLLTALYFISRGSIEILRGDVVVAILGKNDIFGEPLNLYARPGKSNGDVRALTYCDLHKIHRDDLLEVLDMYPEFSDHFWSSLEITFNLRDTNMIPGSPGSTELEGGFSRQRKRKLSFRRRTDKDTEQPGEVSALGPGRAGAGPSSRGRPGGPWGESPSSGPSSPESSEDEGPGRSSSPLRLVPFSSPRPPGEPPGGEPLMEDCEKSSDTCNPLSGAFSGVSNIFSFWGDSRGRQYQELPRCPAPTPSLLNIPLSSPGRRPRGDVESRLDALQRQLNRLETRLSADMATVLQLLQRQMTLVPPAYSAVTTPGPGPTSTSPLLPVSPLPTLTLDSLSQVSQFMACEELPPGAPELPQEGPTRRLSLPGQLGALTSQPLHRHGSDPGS
# assayOverview: Biochemical assay for hERG inhibition (Predictor hERG Fluorescence Polarization Assay Kit)
# Format: binding
# experimentalConditions: competition with affinity tracer 1 nM, 2 hours; read-out: IC50 (μM), hERG inhibition assay
readout: IC50

Lookup: Name the recorded IC50 for CC(C)(O)C1CN(c2nccc(Sc3ncc(N4CCC5(CC4)Cc4ncccc4[C@H]5N)nc3N)c2Cl)C1 [Example 46] .
Found: > 10 µM

----------
# assayOverview: Pharmacokinetic (PK) studies in SD rat
# Type: in vivo
# experimentalConditions: rat; male SD rats, IV, 1 mg/kg, plasma
readout: Cmax (ng/mL)
Numbers only, in ng/mL.

Lookup: Name the recorded Cmax for Cc1nc(N2CCC3(CC2)CO[C@@H](C)[C@H]3N)c(CO)nc1Sc1ccnc(N)c1Cl [Control Compound 2] .
Found: 215

----------
# studySystem: recombinant full-length human PTPN11 (SHP2) (Homo sapiens)
# Construct: recombinant full-length human PTPN11 (SHP2), active (SignalChem); purchased SignalChem
# assayOverview: Inhibition of in vitro enzyme activity of SHP2 (DiFMUP fluorescence endpoint assay)
# Format: biochemical
# experimentalConditions: SHP2 0.5 nM, DiFMUP 200 μM, IRS-1 0.5 μM; 60 min incubation
readout: IC50 (nM)
Answers are plain numbers, in nM.

Worked examples, 2 molecules total:
molecule | IC50 / nM
C[C@@H]1OCC2(CCN(c3cnc(Sc4ccnc(N5CCCC5CO)c4Cl)c(N)n3)CC2)[C@@H]1N (stereo partly shown) [Example 37] | 2.4
Cc1nc(N2CCC3(CC2)CO[C@@H](C)[C@H]3N)c(CO)nc1Sc1ccnc(N2CCCC2CO)c1Cl (stereo partly shown) [Example 1] | 6.03

Record IC50 per entry; entries follow.
1. C[C@@H]1OCC2(CCN(c3ncc(Sc4ccnc(N5CCCC5CO)c4Cl)nc3CF)CC2)[C@@H]1N (stereo partly shown) [Example 4]
2. COCC1CN(c2nccc(Sc3cnc(N4CCC5(CC4)CO[C@@H](C)[C@H]5N)c(CO)n3)c2Cl)C1 [Example 21]

Found:
[4.1, 1.15]

----------
# studySystem: recombinant full-length human PTPN11 (SHP2) (Homo sapiens)
# Construct: recombinant full-length human PTPN11 (SHP2), active (SignalChem); purchased SignalChem
# assayOverview: Inhibition of in vitro enzyme activity of SHP2 (DiFMUP fluorescence endpoint assay)
# Assay type: biochemical
# experimentalConditions: SHP2 0.5 nM, DiFMUP 200 μM, IRS-1 0.5 μM; 60 min incubation
Exam item: assign yes to entries whose IC50 is below 2 nM and no to entries at or above 2 nM. Note that a value of exactly 2 nM receives no.

compound | cat
CC(C)(O)C1CN(c2nccc(Sc3cnc(N4CCC5(CC4)Cc4ccccc4[C@H]5N)c(CO)n3)c2Cl)C1 [Example 23] | yes
C[C@@H]1OCC2(CCN(c3ncc(Sc4ccnc(N5CC(F)(CO)C5)c4Cl)nc3CO)CC2)[C@@H]1N [Example 39] | yes
C[C@@H]1OCC2(CCN(c3ncc(Sc4ccnc(N5CCC(CO)C5)c4Cl)nc3CO)CC2)[C@@H]1N (stereo partly shown) [Example 8] | yes
C[C@@H]1OCC2(CCN(c3ncc(Sc4ccnc(N5CC(CF)C5)c4Cl)nc3CO)CC2)[C@@H]1N [Example 16] | yes
CC(C)(O)C1CN(c2nccc(Sc3cnc(N4CCC5(CC4)Oc4ncccc4[C@H]5N)c(CO)n3)c2Cl)C1 [Example 44] | no

Lookup: Does the reported IC50 of the following compound sit strictly below 2 nM? Cc1nc(N2CCC3(CC2)CO[C@@H](C)[C@H]3N)c(CO)nc1Sc1ccnc(N2CC(CS(C)(=O)=O)C2)c1Cl [Example 25]
Found: no

Lookup: Does the reported IC50 of the following compound sit strictly below 2 nM? CC(C)(O)C1CN(c2nccc(Sc3cnc(N4CCC5(CC4)Cc4ncccc4[C@H]5N)cn3)c2Cl)C1 [Example 45]
Found: no

----------
# assayOverview: Pharmacokinetic (PK) studies in Balb/c mouse
# Assay type: in vivo
# experimentalConditions: mouse, in vivo; female Balb/c mice, IV, 1 mg/kg, blood (TNO-155: plasma); read-out: AUClast
readout: AUC(0-t) (ng·h/mL)
Answers are plain numbers, in ng·h/mL.

Lookup: Name the recorded AUC(0-t) for `C[C@@H]1OCC2(CCN(c3ncc(Sc4ccnc(N5CC(C(C)(C)O)C5)c4Cl)nc3CO)CC2)[C@@H]1N` .
Found: 2590

----------
# assayOverview: Pharmacokinetic (PK) studies in beagle dog
# Assay type: in vivo
# experimentalConditions: dog; male beagle dogs, PO, 2.5 mg/kg, plasma
Provide the reported half-life of each item.
One number for each entry, in h.

Worked examples, 2 compounds total:
compound | val
Cc1nc(N2CCC3(CC2)CO[C@@H](C)[C@H]3N)c(CO)nc1Sc1ccnc(N)c1Cl [Control Compound 2] | 12.3
C[C@@H]1OCC2(CCN(c3ncc(Sc4ccnc(N5CC(O)C5)c4Cl)nc3CO)CC2)[C@@H]1N [Control Compound 1] | 10.5

Lookup: Name the recorded half-life for C[C@@H]1OCC2(CCN(c3cnc(Sc4ccnc(N)c4Cl)c(N)n3)CC2)[C@@H]1N [TNO-155, reference compound] .
Found: 13.2

----------
Provide the reported IC50 of each item.
# studySystem: recombinant full-length human PTPN11 (SHP2) (Homo sapiens, UniProt Q06124)
# Construct: recombinant full-length human PTPN11 (SHP2), active (SignalChem); purchased SignalChem
# Sequence (Q06124 whole entry): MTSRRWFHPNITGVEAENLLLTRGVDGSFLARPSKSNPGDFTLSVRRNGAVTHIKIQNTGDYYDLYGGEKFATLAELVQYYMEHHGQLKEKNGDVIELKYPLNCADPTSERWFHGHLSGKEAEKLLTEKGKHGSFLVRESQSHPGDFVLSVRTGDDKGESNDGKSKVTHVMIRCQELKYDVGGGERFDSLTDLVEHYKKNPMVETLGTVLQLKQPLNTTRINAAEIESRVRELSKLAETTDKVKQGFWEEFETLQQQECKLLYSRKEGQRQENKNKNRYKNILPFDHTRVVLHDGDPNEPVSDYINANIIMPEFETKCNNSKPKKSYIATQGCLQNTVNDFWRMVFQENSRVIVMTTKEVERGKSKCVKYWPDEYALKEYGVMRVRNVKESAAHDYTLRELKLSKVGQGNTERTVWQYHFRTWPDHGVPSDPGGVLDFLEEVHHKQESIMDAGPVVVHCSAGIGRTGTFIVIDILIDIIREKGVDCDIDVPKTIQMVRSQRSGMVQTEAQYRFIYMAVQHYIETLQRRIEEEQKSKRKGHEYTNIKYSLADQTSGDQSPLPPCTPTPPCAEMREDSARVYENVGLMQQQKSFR
# assayOverview: Inhibition of in vitro enzyme activity of SHP2 (DiFMUP fluorescence endpoint assay)
# Type: biochemical
# experimentalConditions: SHP2 0.5 nM, DiFMUP 200 μM, IRS-1 0.5 μM; 60 min incubation
# Text: Test Example 1: Experiment on the Inhibition of In Vitro Enzyme Activity of SHP2 (Protein Phosphatase) phosphatase: recombinant full-length human PTPN11 (SHP2), active (SignalChem); substrate: 6,8-difluoro-4-methylumbelliferyl phosphate (DiFMUP) (Invitrogen); activating peptide: IRS1_pY1172(dPEG8)pY1222 (IRS1) (BPS Bioscience); […] parameters for microplate reader: BMG PHERAstar fluorescence microplate reader at an excitation wavelength of 340 nm and an emission wavelength of 450 nm. […]
Give bare numbers, in nM.

Worked examples, 3 compounds total:
compound | unitText | IC50
C[C@@H]1OCC2(CCN(c3ncc(Sc4ccnc(N5CC(CO)(CF)C5)c4Cl)nc3CO)CC2)[C@@H]1N | nM | 10.2
C[C@@H]1OCC2(CCN(c3ncc(Sc4ccnc(N5CC(C)(CO)C5)c4Cl)nc3CO)CC2)[C@@H]1N | nM | 4.1
C[C@@H]1OCC2(CCN(c3ncc(Sc4ccnc(N5CC[C@H]5CO)c4Cl)nc3CO)CC2)[C@@H]1N | nM | 1.3

Lookup: Name the recorded IC50 for N[C@@H]1COCC12CCN(c1ncc(Sc3ccnc(N4CCCC4CO)c3Cl)nc1CO)CC2 (stereo partly shown) .
Found: 4.6

----------
# studySystem: recombinant full-length human PTPN11 (SHP2) (Homo sapiens, UniProt Q06124)
# Construct: recombinant full-length human PTPN11 (SHP2), active (SignalChem); purchased SignalChem
# assayOverview: Inhibition of in vitro enzyme activity of SHP2 (DiFMUP fluorescence endpoint assay)
# Format: biochemical
# experimentalConditions: SHP2 0.5 nM, DiFMUP 200 μM, IRS-1 0.5 μM; 60 min incubation
Provide the reported IC50 of each item.
Give bare numbers, in nM.

Worked examples, 2 molecules total:
molecule | unitText | IC50
CC(O)C1CN(c2nccc(Sc3cnc(N4CCC5(CC4)CO[C@@H](C)[C@H]5N)c(CO)n3)c2Cl)C1 (stereo partly drawn) [Example 17] | nM | 2.5
C[C@@H]1OCC2(CCN(c3ncc(Sc4ccnc(N5CCC(CC#N)C5)c4Cl)nc3CO)CC2)[C@@H]1N (stereo partly drawn) [Example 10] | nM | 1.22

Lookup: Name the recorded IC50 for COCC1(C)CN(c2nccc(Sc3cnc(N4CCC5(CC4)CO[C@@H](C)[C@H]5N)c(CO)n3)c2Cl)C1 [Example 33] .
Found: 4.1

The origin of these recorded values is patent US20230212180A1.
